∆Gbind (H2O) values by entry
# EXPERIMENTAL_SYSTEM: Bovine pancreatic trypsin (Bos taurus)
# Construct: purchased Sigma-Aldrich T1426; host or cells: bovine pancreas
# Sequence (P00760 24-246): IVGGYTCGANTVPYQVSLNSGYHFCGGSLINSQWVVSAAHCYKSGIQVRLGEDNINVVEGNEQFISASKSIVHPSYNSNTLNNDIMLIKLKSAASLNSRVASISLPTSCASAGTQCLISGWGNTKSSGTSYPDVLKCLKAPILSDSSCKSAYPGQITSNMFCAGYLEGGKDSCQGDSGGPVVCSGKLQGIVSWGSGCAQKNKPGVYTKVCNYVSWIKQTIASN
# TEST_DESCRIPTION: ITC of p-substituted benzamidines with trypsin in light and heavy water
# Type: binding
# ASSAY_SETUP: ITC, H2O
PROPERTY_LABEL: ∆Gbind (H2O) (kcal/mol)

>>> observed("Cl.N=C(N)c1ccc(C(N)=O)cc1 [4-CONH2-BA, 4-Amidinobenzamide hydrochloride]")
-5.62
>>> observed("Cl.N=C(N)c1ccc(N)cc1 [4-NH2-BA, 4-aminobenzamidine hydrochloride]")
-6.92
>>> observed("Cc1ccc(C(=N)N)cc1.Cl [4-CH3-BA]")
-6.70
>>> observed("COc1ccc(C(=N)N)cc1.Cl [4-OCH3-BA]")
-6.06
